This collection of values is drawn from paper PMC4032265.

- target-desc: 5HT2A serotonergic receptor (Homo sapiens)
- Sequence (P28223 whole entry): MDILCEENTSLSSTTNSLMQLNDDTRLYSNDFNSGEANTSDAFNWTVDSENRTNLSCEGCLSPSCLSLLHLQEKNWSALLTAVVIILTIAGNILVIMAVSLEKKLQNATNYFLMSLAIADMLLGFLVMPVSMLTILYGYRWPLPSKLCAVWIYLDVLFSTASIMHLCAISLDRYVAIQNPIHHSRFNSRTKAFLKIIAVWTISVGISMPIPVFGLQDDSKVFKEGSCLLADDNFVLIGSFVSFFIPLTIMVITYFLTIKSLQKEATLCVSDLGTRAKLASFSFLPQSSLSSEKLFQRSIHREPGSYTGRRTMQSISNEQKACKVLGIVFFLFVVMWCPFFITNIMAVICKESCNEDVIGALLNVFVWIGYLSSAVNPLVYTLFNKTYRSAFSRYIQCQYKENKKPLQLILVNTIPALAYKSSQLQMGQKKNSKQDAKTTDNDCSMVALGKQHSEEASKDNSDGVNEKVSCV
- assay-notes: PDSP radioligand binding, 5HT2A
- condition-label: read-out: % inhibition at 10 µM; single concentration 10 µM

# smiles-data, inhibition at 10 µM
records = [
    ("CNC(=O)[C@@]12C[C@@H]1[C@@H](n1cnc3c(NCc4cccc(Cl)c4)nc(C#Cc4ccc(F)c(F)c4)nc31)[C@H](O)[C@@H]2O", "5%"),
    ("CNC(=O)[C@@]12C[C@@H]1[C@@H](n1cnc3c(NCc4cccc(Cl)c4)nc(C#Cc4ccccc4Cl)nc31)[C@H](O)[C@@H]2O", "26%"),
    ("O[C@@H]1[C@H](O)[C@@H]2C[C@@H]2[C@H]1n1cnc2c(NCc3cccc(Cl)c3)ncnc21", "7%"),
    ("CNC(=O)[C@@]12C[C@@H]1[C@@H](n1cnc3c(NCc4cccc(Cl)c4)nc(C#Cc4ccc(F)cc4)nc31)[C@H](O)[C@@H]2O", "19%"),
    ("Fc1ccc(C#Cc2nc(NCc3cccc(Cl)c3)c3nc[nH]c3n2)cc1F", "9%"),
    ("O[C@@H]1[C@H](O)[C@@H]2C[C@@H]2[C@H]1n1cnc2c(NCc3cccc(Cl)c3)nc(C#Cc3ccc(F)c(F)c3)nc21", "6%"),
    ("CNC(=O)[C@@]12C[C@@H]1[C@@H](n1cnc3c(NCc4cccc(Cl)c4)nc(Cl)nc31)[C@H](O)[C@@H]2O", "34%"),
]
